Kd values recorded for UniProt:P02791
Sequence (P02791 2-175 limits assumed): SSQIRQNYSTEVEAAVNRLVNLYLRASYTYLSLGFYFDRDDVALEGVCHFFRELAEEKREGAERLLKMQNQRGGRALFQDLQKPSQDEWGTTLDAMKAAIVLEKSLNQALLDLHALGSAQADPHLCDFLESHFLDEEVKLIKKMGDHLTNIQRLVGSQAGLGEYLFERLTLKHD
ENDPOINT_LABEL: Kd (µM)

molecule=CC(C)c1cccc(C(C)C)c1O observed=5
molecule=O=Nc1ccc2oc(=O)ccc2c1 observed=37.9
molecule=CN(N=O)c1ccc(O)c(O)c1 observed=284
molecule="C=C1C(=O)O[C@H]2[C@H]1CC/C(C)=C/CC[C@@]1(C)O[C@@H]21 [P-0667, Parthenolide]" observed=35.9
